tgt: HLA-C0602 (Homo sapiens, UniProt P10321, A176E/A330V/C350S/L171W/L180W/L218V/M285V/M309V/M331V/N104K/P208H/Q277E/Q291P/R121W/S101N/S123Y/S297R/T329A/T363A/V319A/V328M)
assay-name: Competitive peptide binding assay, CIR-C0602
pIC50: −log10 of the molar value. Peptide text beside a SMILES is read from it.
Listed here are compounds together with their documented pIC50.

INSERT INTO assay_data (compound, reported_property, readout_value) VALUES
  ('CC(C)[C@H](NC(=O)CNC(=O)[C@H](CCC(=O)O)NC(=O)[C@H](CCCNC(=N)N)NC(=O)[C@@H]1CCCN1C(=O)[C@H](Cc1ccccc1)NC(=O)[C@H](Cc1c[nH]cn1)NC(=O)[C@H](C)N)C(=O)N[C@@H](Cc1ccccc1)C(=O)O [Epitope M157] (H-AHFPREGVF-OH; N-terminus and C-terminus assumed)', 'pIC50', '< 4.82');

Please turn your attention to the following entry.
Note down pIC50 recorded for CC(C)[C@H](NC(=O)[C@@H](N)Cc1ccccc1)C(=O)N[C@@H](CO)C(=O)N[C@@H](CC(N)=O)C(=O)NCC(=O)N[C@H](C(=O)N[C@@H](Cc1c[nH]cn1)C(=O)N[C@@H](Cc1c[nH]c2ccccc12)C(=O)N[C@@H](Cc1ccccc1)C(=O)O)[C@@H](C)O [Epitope M68] (H-FVSNGTHWF-OH; N-terminus and C-terminus assumed) < 4.82
